- System: Tov112D
- ASSAY EXPLANATION: Primary qHTS to identify gynecologic anti-cancer compounds using libraries of approved drugs and bioactive compounds (AID 1345084); note: % is set by controls: 0 for no effect and ±100 for the full control effect; nearly all actives have a fitted effect of over 55% in size
- CONDITION SET: Gynecologic cancer cell panel viability, ATPlite luminescence, 48 h; series mostly up to 57.5 µM
Results filed as inconclusive are left out. Calls of active or inactive are those of the source. Calls come from the whole dose curve; as a rule, active = well fitted cell-killing curve with a large enough effect; inconclusive = small, poorly fitted or top-dose-only effect, or effect the other way; inactive = flat fitted curve, though single readings scatter.
ASSAY READOUT: outcome

COc1cc2nc(-c3ccc(N4CCN(C)CC4)cc3)nc(NCCN3CCOCC3)c2cc1OC; inactive
CN1CCN(CCOc2cc(OC3CCOCC3)c3c(Nc4c(Cl)ccc5c4OCO5)ncnc3c2)CC1; inactive
COc1ccc(C2Sc3ccccc3N(CCN(C)C)C(=O)C2OC(C)=O)cc1 (stereo not drawn); inactive

----------
- ASSAY EXPLANATION: qHTS profiling of the MIPE4 collection as inhibitors of Plasmodium falciparum (DD2) proliferation (AID 743345)
- CONDITION SET: P. falciparum Dd2 in erythrocytes, SYBR Green DNA, 72 h; at 28.5 µM (top of the series) unless noted
ASSAY READOUT: parasite growth remaining, % of DMSO control (lower = more inhibition) (%)
Hi! Could you send only the number? It should be in %, unit omitted.

CO[C@H]1C[C@@H]2CC[C@@H](C)[C@@](O)(O2)C(=O)C(=O)N2CCCC[C@@H]2C(=O)O[C@H]([C@H](C)C[C@@H]2CC[C@H](OCCO)[C@H](OC)C2)CC(=O)[C@H](C)C=C(C)[C@@H](O)[C@@H](OC)C(=O)[C@H](C)C[C@H](C)C=CC=CC=C1C; 7.69
CO[C@H]1C[C@@H]2CC[C@@H](C)[C@@](O)(O2)C(=O)C(=O)N2CCCC[C@@H]2C(=O)O[C@H]([C@H](C)C[C@@H]2CC[C@H](OP(C)(C)=O)[C@H](OC)C2)CC(=O)[C@H](C)C=C(C)[C@@H](O)[C@@H](OC)C(=O)[C@H](C)C[C@H](C)C=CC=CC=C1C; 6.6
N[C@H](CSC(c1ccccc1)(c1ccccc1)c1ccccc1)C(=O)O; 86.8
CC(C)C(=O)Nc1ncc(-c2cc(C(F)F)nn2-c2c(Cl)cccc2Cl)s1; 13.6

Next:
# input So what's the measured parasite growth remaining, % of DMSO control (lower = more inhibition) for this one? CNC1CCC(N(Cc2cccc(-c3ccncc3)c2)C(=O)c2sc3c(F)ccc(F)c3c2Cl)CC1 (stereo not given)
# output 7.02

----------
- ASSAY EXPLANATION: Quantitative High-Throughput drug screen in 47 multiple myeloma cell lines against the NCATS MIPE library collection: RPMI8226_ATCC cell viability assay (AID 1919871); note: nearly all actives have a fitted effect of over 30% in size
- CONDITION SET: RPMI8226 myeloma viability, CellTiter-Glo ATP luminescence, 48 h; series mostly up to 45.8 µM
Records with an inconclusive call do not appear. Activity calls are given as the source filed them. Calls follow the shape of the dose curve; as a rule, active = well fitted cell-killing curve with a large enough effect; inconclusive = small, poorly fitted or top-dose-only effect, or effect the other way; inactive = no such curve, though single readings can be large or run the other way.
Response enum: active, inactive

Cc1ccn(-c2ccc(-c3ncco3)cc2)c(=O)c1-c1ccc2nc(N)ncc2c1; inactive

# input Check the results log: what was the call for CC(C)(C)C(=O)Oc1ccc2c(c1)nc(NC(=O)c1cccc([N+](=O)[O-])c1)n2CCCO ?
# output active

# input Same question for NC1CCC(Nc2nc(Nc3ccc(C(=O)N4CCCCC4)cc3)c3ncn(-c4cccc(F)c4)c3n2)CC1 (stereo not given) please.
# output inactive

# input Same question for Cc1c[nH]c(C=C2C(=O)Nc3ccccc32)c1CCC(=O)O please.
# output inactive

# input Same question for Oc1ccc(C2CCN(c3ccnc4ccccc34)CC2)cc1O please.
# output active

# input Same question for Cc1ccc(C(=O)Nc2cccc(C(F)(F)F)c2)cc1Nc1nc(-c2cccnc2)nc2c1cnn2C please.
# output active

# input Same question for CC(C)(C)COc1ccc(-n2cc(C(=O)O)cn2)cc1C#N please.
# output inactive

# input Same question for CC=CC[C@@H](C)C(=O)[C@H]1C(=O)N[C@@H](C(C)C)C(=O)N(C)CC(=O)N(C)[C@@H](CC(C)C)C(=O)N[C@@H](C(C)C)C(=O)N(C)[C@@H](CC(C)C)C(=O)N[C@@H](C)C(=O)N[C@H](C)C(=O)N(C)[C@@H](CC(C)C)C(=O)N(C)[C@@H](CC(C)C)C(=O)N(C)[C@@H](C(C)C)C(=O)N1C please.
# output active

# input Same question for CC(=Cc1ccccc1)C=C1SC(=S)N(CC(=O)O)C1=O please.
# output inactive

# input Same question for CCC(CC)[C@H](NC(C)=O)[C@@H]1[C@H](O)[C@@H](C(=O)O)C[C@@H]1N=C(N)N please.
# output inactive

----------
- ASSAY EXPLANATION: qHTS drug screen for cell cycle checkpoint inhibitors in PARPi-resistant BRCA-mutant ovarian cancer cell lines. (AID 1963452)
- CONDITION SET: PEO1/OlaR viability, CellTiter-Glo luminescence, 96 h; stronger effect = lower value
ASSAY READOUT: Z-AUC
Number only, no unit.

Guide cases for Z-AUC, answers given:
N#CC1(c2ccc(NC(=O)c3cccnc3NCc3ccncc3)cc2)CCCC1; 1.21
COc1cc(NC(=O)c2ccc(-c3ccc(Cl)cc3)o2)cc(OC)c1; -0.479

# input So what's the measured Z-AUC for this one? CCCCCN(C)CCC(O)(P(=O)(O)O)P(=O)(O)O
# output 0.387

# input Same question for O=c1c(-c2ccc(O)cc2)coc2cc(O)ccc12 please.
# output 1.12

# input Same question for COc1ccc2cccc(CCNC(C)=O)c2c1 please.
# output -0.374

# input Same question for COc1cc2ncnc(Nc3ccc(F)c(Cl)c3)c2cc1OCCCN1CCOCC1 please.
# output 0.988

----------
- ASSAY EXPLANATION: qHTS Screen of the MIPE 4.0 Collection Against Ewings Sarcoma (RDES) (AID 1259252); note: nearly all actives have a fitted effect of over 35% in size; note: potency is the fitted concentration of half-maximal effect
- CONDITION SET: RD-ES Ewing sarcoma viability, CellTiter-Glo, 48 h; series mostly up to 45.8 µM
Inconclusive results are not listed. Calls of active or inactive are those of the source. Calls come from the whole dose curve; as a rule, active = well fitted inhibition curve with a large enough effect; inconclusive = small, poorly fitted or top-dose-only effect; inactive = no such curve, though single readings can be large or run the other way.
ASSAY READOUT: Potency

O=C(CCc1ccc(O)cc1)c1c(O)cc(O)cc1O[C@@H]1O[C@H](CO)[C@H](O)[C@H](O)[C@H]1O; inactive
O=c1cc(-c2ccccc2)oc2cc(O)c(O)c(O)c12; 20.9 µM (active)
O=C(O)c1cc(O)c2c(c1)C(=O)c1cccc(O)c1C2=O; inactive
NS(=O)(=O)c1cccc2c1C(=O)c1cccc(O)c1C2=O; 18.7 µM (active)

Next:
# input So what's the measured Potency for this one? O=C(O)c1ccccc1C(=O)Nc1ccc(-c2ccccc2)cc1
# output inactive

----------
Measured parasite growth remaining, % of DMSO control (lower = more inhibition), listed per entry.
- ASSAY EXPLANATION: qHTS profiling of the MIPE4 collection as inhibitors of Plasmodium falciparum (DD2) proliferation (AID 743345)
- CONDITION SET: P. falciparum Dd2 in erythrocytes, SYBR Green DNA, 72 h; at 28.5 µM (top of the series) unless noted
Hi! Could you send only the number? It should be in %, unit omitted.

Guide cases for parasite growth remaining, % of DMSO control (lower = more inhibition), answers given:
c1cc(-c2sc(-c3ccncc3)c(-c3ccncc3)c2-c2ccncc2)ccn1; 81.7
O=C(O)C(O)Cc1ccc(O)c(O)c1 (centres undefined); 79.5
CC(C)C[C@H](CC(=O)O)C(=O)N[C@@H](Cc1c[nH]c2ccccc12)C(=O)N[C@@H](C)c1ccccc1; 77.8

# input So what's the measured parasite growth remaining, % of DMSO control (lower = more inhibition) for this one? COc1ccc(-n2c(C)c([N+](=O)[O-])c3ccc(O)cc32)cc1
# output 78.7

----------
- ASSAY EXPLANATION: qHTS of pediatric cancer cell lines to identify multiple opportunities for drug repurposing: Primary screen for BT-12 cells (AID 1347101);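 note: plate controls were DMSO for no effect and bortezomib positive control for full effect; nearly all actives have a fitted effect of over 25% in size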
- CONDITION SET: BT-12 viability, CellTiter-Glo luminescence, 48 h; series mostly up to 57.3 µM
Inconclusive results are not listed. Active and inactive are the calls of the source. Calls come from the whole dose curve; as a rule, active = well fitted cell-killing curve with a large enough effect; inconclusive = small, poorly fitted or top-dose-only effect; inactive = flat fitted curve, though single readings scatter.
Response enum: 1 (active), 0 (inactive)

C=C1C(=O)OC(CCCCCCCC)C1C(=O)O (centres undefined); 0
CCCCC1C(=O)N(c2ccccc2)N(c2ccccc2)C1=O; 0
CCn1c(C(=O)N(C2CC2)C2CC2)cc2c3c(ncn3C)c(Nc3cc(C)n(C)n3)nc21; 0

Turning to the following compound.
# input Check the results log: what was the call for Clc1ccc(-c2nc3sccn3c2C=NOCc2ccc(Cl)c(Cl)c2)cc1 ?
# output 0

----------
- ASSAY EXPLANATION: Quantitative High-Throughput drug screen in 47 multiple myeloma cell lines against the NCATS MIPE library collection: U266_ATCC cell viability assay (AID 1919864); note: nearly all actives have a fitted effect of over 35% in size
- CONDITION SET: U266 myeloma viability, CellTiter-Glo ATP luminescence, 48 h; series mostly up to 45.8 µM
Inconclusive results are not listed. Active and inactive are the calls of the source. The call rests on the fitted dose curve; in most records, active means well fitted cell-killing curve with a large enough effect; inconclusive means small, poorly fitted or top-dose-only effect, or effect the other way; inactive means no such curve, though single readings can be large or run the other way.
Response enum: true (1) (active), false (0) (inactive)

CC(=O)Nc1ccc([C@H](C)C(=O)Nc2ncc(C(C)C)s2)cc1; true (1)
CN(C[C@@H]1COCCO1)S(=O)(=O)Nc1ccc2ccc3ncc(-c4cnn(C)c4)cc3c(=O)c2c1; true (1)
COC1CCC(N(C(=O)C2CCC(C)CC2)c2cc(C3=CCCCC3)sc2C(=O)O)CC1 (centres undefined); false (0)
COc1cc2ncnc(Nc3ccc(F)c(Cl)c3)c2cc1OCCCN1CCOCC1; true (1)

# input Check the results log: what was the call for O=C1C(Cl)=C(NCCN2CCOCC2)C(=O)c2ncccc21 ?
# output true (1)

# input Same question for CC(C)(Cc1ccc2ccccc2c1)NC[C@@H](O)COc1cccc(Cl)c1C#N please.
# output false (0)

# input Same question for CC(C)OC(=O)CCCC=CC[C@@H]1[C@H](C=C[C@@H](O)COc2cccc(C(F)(F)F)c2)[C@H](O)C[C@@H]1O please.
# output true (1)

# input Same question for NC1CCC(Nc2nc(Nc3ccc(C(=O)N4CCCCC4)cc3)c3ncn(-c4cccc(F)c4)c3n2)CC1 (centres undefined) please.
# output false (0)

# input Same question for CC=CCC(C)C(O)C1C(=O)NC(CC)C(=O)N(C)CC(=O)N(C)C(CC(C)C)C(=O)NC(C(C)C)C(=O)N(C)C(CC(C)C)C(=O)NC(C)C(=O)NC(C)C(=O)N(C)C(CC(C)C)C(=O)N(C)C(CC(C)C)C(=O)N(C)C(C(C)C)C(=O)N1C (centres undefined) please.
# output false (0)
